Provenance of the data: the supplement of paper PMC12632987

Molecular target: T1, USP38, Q8NB14
T1 chain: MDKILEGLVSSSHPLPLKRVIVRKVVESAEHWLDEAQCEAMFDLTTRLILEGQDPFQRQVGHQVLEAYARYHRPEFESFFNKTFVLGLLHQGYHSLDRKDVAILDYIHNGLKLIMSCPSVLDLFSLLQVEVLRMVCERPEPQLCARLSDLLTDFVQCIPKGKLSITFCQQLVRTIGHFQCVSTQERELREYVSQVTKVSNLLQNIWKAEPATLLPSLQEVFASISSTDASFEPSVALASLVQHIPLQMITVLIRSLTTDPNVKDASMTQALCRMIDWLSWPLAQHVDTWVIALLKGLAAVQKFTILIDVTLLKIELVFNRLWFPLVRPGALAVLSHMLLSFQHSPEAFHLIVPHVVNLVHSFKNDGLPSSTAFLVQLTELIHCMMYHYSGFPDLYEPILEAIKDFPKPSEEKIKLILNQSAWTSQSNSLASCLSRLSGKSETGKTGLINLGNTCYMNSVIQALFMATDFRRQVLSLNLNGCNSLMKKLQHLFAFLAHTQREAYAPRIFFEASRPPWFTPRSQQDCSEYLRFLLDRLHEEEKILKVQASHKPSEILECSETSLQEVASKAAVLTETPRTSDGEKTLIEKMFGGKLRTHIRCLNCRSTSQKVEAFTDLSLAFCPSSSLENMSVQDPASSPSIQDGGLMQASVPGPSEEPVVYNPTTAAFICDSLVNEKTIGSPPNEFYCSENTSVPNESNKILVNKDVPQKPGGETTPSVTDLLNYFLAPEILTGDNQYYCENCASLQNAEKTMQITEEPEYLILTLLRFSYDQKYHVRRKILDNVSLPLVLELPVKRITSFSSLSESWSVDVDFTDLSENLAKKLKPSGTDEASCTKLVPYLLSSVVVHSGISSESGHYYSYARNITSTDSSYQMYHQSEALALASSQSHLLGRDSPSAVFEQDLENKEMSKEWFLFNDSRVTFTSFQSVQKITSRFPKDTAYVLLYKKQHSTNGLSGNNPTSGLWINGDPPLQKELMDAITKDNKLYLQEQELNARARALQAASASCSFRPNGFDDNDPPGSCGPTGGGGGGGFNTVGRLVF
Assay: median log2 fold change of GCK-ALFA target abundance (FLAG IP / Myc IP barcode read proportion) (log2 ratio); each designed protein is fused to an ALFA-tag nanobody in HEK293 cells to bring the named protein to FLAG-tagged glucokinase (GCK); Myc marks an untargeted standard; higher = target protein stabilised (more abundant)
Settings: target protein: 3xFLAG-MCP-GCK-ALFA reporter; HEK293 landing pad (RPLP)
VALUE TYPE: median log2 fold change

Some entries whose results are on file:
BINDER	OBSERVED RESULT
usp_38_diff_out_5_164_582 (protein) GVEEYLAEMEAIRDETIAKLDALLAEAKENPEKLDEYKKEITDTTNEAINRMTEVTTRALEEHPEKAEEILARYSELMDELLTHYNAVMEELEKLKEELE	-0.0672
usp_38_diff_out_4_12_552 (protein) AEEERRKELEELLREMEELTEETVARMKELLKELKETKDEEVYEELLKLAEEALTRLAELTTRALELAETDEELEEILRRYSEAVDEIVALMQEARKAMK	-0.539
usp_38_diff_out_18_14_343 (protein) SEELAEAELANLKSLKEEVKRVTERTKKIIEKLKDDPEAALSLLDTRIQAYKGVIKYAEEVLKEAKKAGYEELAKAAEELKKAAEEALKELERLRKELEA	-0.329
usp_38_diff_out_18_28_431 (protein) AEAAIQAKIDAAEKEMDALIDEYVKVATEGFLALDESDKGEELEAAINELADAVGAAAAAVNEMRRNRDDPAAVDAQLAKFNAAKKKAKEKIKEIKKLLK	-0.437

Next binder, please.
Quickly give me recorded median log2 fold change for usp_38_diff_out_18_28_387 (protein) MEKEREELKKELEELRKRLDELIDRATEEATRALTAHPDDEEVWELIDRLFDTLGEAAAALNRARELLRAGGPLEEVKKELEKARKALEEAERLLEELEA
-0.291
